System: M14
Assay protocol: NCI tumour cell line growth inhibition, 48 h
Activity calls are given as the source filed them. Rule as the data show it: active = GI50 up to about 1.1 µM and inactive = higher.
Outcomes: active, inactive

>  <Compound>
CCCNC1=C2CC(C)CC(OC)[C@@H](O)[C@H](C)/C=C(\C)C(OC(N)=O)C(OC)/C=C\C=C(/C)C(=O)NC(=CC1=O)C2=O (stereo partly specified)

>  <Classification>
active

$$$$
>  <Compound>
Clc1ccc(COC(Cn2ccnc2)c2ccc(Cl)cc2Cl)c(Cl)c1 (stereo unspecified)

>  <Classification>
inactive

$$$$
>  <Compound>
CC(=O)NCCC1CNc2ccccc21 (stereo unspecified)

>  <Classification>
inactive

$$$$
>  <Compound>
Clc1ccc(C[P+](c2ccccc2)(c2ccccc2)c2ccccc2)cc1Cl

>  <Classification>
inactive

$$$$
>  <Compound>
C=C[C@@]1(O)CCCC2=C(C(=O)OCC)CC[C@]21C

>  <Classification>
inactive

$$$$
>  <Compound>
Nc1ccn(C2OC(CO)C(O)C2O)c(=O)n1 (stereo unspecified)

>  <Classification>
active

$$$$
>  <Compound>
N[C@@H](Cc1ccccc1)C(=O)N1CCC[C@@H]1P(=O)(Oc1ccccc1)Oc1ccccc1

>  <Classification>
inactive

$$$$
>  <Compound>
Nc1ccc(Nc2cc(=O)[nH]c(=O)[nH]2)cc1Cl

>  <Classification>
inactive

$$$$
>  <Compound>
CCCCCC1=C/C(=C\c2[nH]c(-c3ccc[nH]3)cc2OC)N=C1C

>  <Classification>
active

$$$$
>  <Compound>
Cc1cc(C)c(S(=O)(=O)N(CCCN)OCCCN)c(C)c1

>  <Classification>
inactive

$$$$
>  <Compound>
CN(C)CCCCN1c2ccccc2Sc2ccc(C(=O)c3ccccc3)cc21

>  <Classification>
inactive

$$$$
>  <Compound>
N#CC(/N=N/c1ccc(Cl)cc1)c1nc2ccccc2o1 (stereo unspecified)

>  <Classification>
inactive

$$$$
>  <Compound>
COc1ccc(-c2cc(-c3ccc(Nc4ccnc5cc(Cl)ccc45)cc3)[nH]c(=O)c2C#N)cc1

>  <Classification>
inactive

$$$$
>  <Compound>
O=c1c(Br)cc2nc3ccccc3sc-2c1Br

>  <Classification>
inactive

$$$$
>  <Compound>
O=C(O)c1ccc2nc(-c3ccccn3)c(-c3ccccn3)nc2c1

>  <Classification>
inactive

$$$$
>  <Compound>
O=C1c2ccccc2C(=O)c2c(NC(=O)C(Cl)CCl)cccc21 (stereo unspecified)

>  <Classification>
inactive

$$$$
>  <Compound>
CC1(C)C(O)c2ccccc2OC1N1CCN(C2Oc3ccccc3C(O)C2(C)C)CC1 (stereo unspecified)

>  <Classification>
inactive

$$$$
>  <Compound>
CCOC(=O)CSC1NC(C(=O)OC)CC1OC (stereo unspecified)

>  <Classification>
inactive

$$$$
>  <Compound>
c1ccc(/N=C2\c3ccsc3/C(=N/c3ccccc3)c3ccsc32)cc1

>  <Classification>
inactive

$$$$
>  <Compound>
OCCN1CCN(CC/C=C2/c3ccccc3Sc3ccc(Cl)cc32)CC1

>  <Classification>
inactive

$$$$
>  <Compound>
O=C(NCc1cccnc1)NCc1cccnc1

>  <Classification>
inactive

$$$$
>  <Compound>
COc1ccc(-c2onc(-c3ccc([N+](=O)[O-])cc3)c2C2=NCCCN2)cc1

>  <Classification>
inactive

$$$$
>  <Compound>
Cc1cc(C)c2c(c1)C(=O)C1(C2)Cc2c(ccc(C)c2C)C1=O (stereo unspecified)

>  <Classification>
inactive

$$$$
>  <Compound>
Nc1ncn2c(n1)nc1ccccc12

>  <Classification>
inactive

$$$$
>  <Compound>
Nc1ccccc1Nc1ccccc1C(=O)[O-].Nc1ccccc1Nc1ccccc1C(=O)[O-].[Zn+2]

>  <Classification>
inactive

$$$$
>  <Compound>
C[C@@H]1[C@H](O)CC2=C(CC[C@@H](O)C2(C)C)[C@@]1(CO)CCc1ccoc1

>  <Classification>
inactive

$$$$
>  <Compound>
O=C(O)c1[nH]c(=O)[nH]c(=O)c1CN1CCCCC1

>  <Classification>
inactive

$$$$
>  <Compound>
Cc1cc(NS(=O)(=O)c2ccc(NC(=O)c3cccc4c(Nc5ccc(S(=O)(=O)Nc6cc(C)on6)cc5)c5ccc(Cl)cc5nc34)cc2)no1

>  <Classification>
inactive

$$$$
>  <Compound>
O=C1OC(c2ccccc2)(c2ccccc2)c2ccc3ccc(F)cc3c21

>  <Classification>
inactive

$$$$
>  <Compound>
CCOC(=O)Oc1c(OC)cc(C(=O)NC2CCc3cc(OC)c(OC)c(OC)c3-c3ccc(SC)c(=O)cc32)cc1OC (stereo unspecified)

>  <Classification>
active

$$$$
>  <Compound>
O=[N+]([O-])c1ccc2nc(=S)[nH]n2c1

>  <Classification>
inactive

$$$$
